# System: A431 (skin) epidermoid carcinoma cells
# assay-comment: Cytotoxicity (MTT) assay
# Assay type: cell-based
# particulars: Homo sapiens, A-431, read-out: IC50, Positive Control Epothilone B (nM)
metric: IC50 (nM)
Write the number in nM without appending the unit.

-- ask Record request: IC50 value, item `C/C(=C\c1csc(C)n1)[C@@H]1C[C@@H]2O[C@]2(C)CCC[C@H](C)[C@H](O)[C@@H](C)C(=O)C(C)(C)[C@@H](O)CC(=O)O1`
-- reply 0.06
